system: 521955-158-R6-J3-PDC complex spheroid growth, % test/control; assay: Anticancer human tumor 521955-158-R6-J3-PDC patient-derived pancreatic carcinoma cell line growth inhibition [Asc]; conditions: second compound 10 µM; first compound 0.01 µM; active = viability on the fitted dose curve at most 10% of control; inactive = the rest
# output must be one of active, inactive

Examples from the recorded data:
[[record]]
compound = "CNC(C)C(=O)NC1CN(S(=O)(=O)c2cccc(S(=O)(=O)N3CCC4CCC(C(=O)NC(c5ccccc5)c5ccccc5)N4C(=O)C(NC(=O)C(C)NC)C3)c2)CCC2CCC(C(=O)NC(c3ccccc3)c3ccccc3)N2C1=O (stereo not drawn) + Cc1c(S(C)(=O)=O)c(-c2cc(F)cc(N3CCN(c4ccc(NS(=O)(=O)c5ccc(NC(CCN6CCC(C(=O)OCCCP(=O)(O)O)CC6)CSc6ccccc6)c(S(=O)(=O)C(F)(F)F)c5)cc4)CC3)c2)c(-c2ccc(Cl)cc2)n1C(C)C"
discrete_label = "active"

[[record]]
compound = "NC1CCC(NC2CC2c2ccccc2)CC1 (stereo not drawn) + Cc1c(S(C)(=O)=O)c(-c2cc(F)cc(N3CCN(c4ccc(NS(=O)(=O)c5ccc(NC(CCN6CCC(C(=O)OCCCP(=O)(O)O)CC6)CSc6ccccc6)c(S(=O)(=O)C(F)(F)F)c5)cc4)CC3)c2)c(-c2ccc(Cl)cc2)n1C(C)C"
discrete_label = "inactive"


In this assay, the call recorded for COc1c(OCCCN2CCOCC2)ccc2c3n(c(=NC(=O)c4cnc(N)nc4)nc12)CCN3 + Cc1c(S(C)(=O)=O)c(-c2cc(F)cc(N3CCN(c4ccc(NS(=O)(=O)c5ccc(NC(CCN6CCC(C(=O)OCCCP(=O)(O)O)CC6)CSc6ccccc6)c(S(=O)(=O)C(F)(F)F)c5)cc4)CC3)c2)c(-c2ccc(Cl)cc2)n1C(C)C was what?
inactive

====

test system: 521955-158-R6-J3-PDC complex spheroid growth, % test/control; assay: Anticancer human tumor 521955-158-R6-J3-PDC cell line growth inhibition [Asc]; details: second compound 0.01 µM; first compound 0.0316 µM; hits give low values;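 note: spheroids exposed to compounds for 7 days; 100% = DMSO vehicle control wells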
Parameter measured: viability, T/C

In the examples that follow, each entry is paired with its recorded viability, T/C.
[[record]]
compound = "COc1c(OCCCN2CCOCC2)ccc2c3n(c(=NC(=O)c4cnc(N)nc4)nc12)CCN3 + CNC(C)C(=O)NC1CN(S(=O)(=O)c2cccc(S(=O)(=O)N3CCC4CCC(C(=O)NC(c5ccccc5)c5ccccc5)N4C(=O)C(NC(=O)C(C)NC)C3)c2)CCC2CCC(C(=O)NC(c3ccccc3)c3ccccc3)N2C1=O"
target_entity = "521955-158-R6-J3-PDC complex spheroid growth, % test/control"
test_value = "54.4%"

[[record]]
compound = "C=CC(=O)N1CCN(c2nc(=O)n(-c3c(C)ccnc3C(C)C)c3nc(-c4c(O)cccc4F)c(F)cc23)C(C)C1 (stereo unspecified) + CNC(C)C(=O)NC1CN(S(=O)(=O)c2cccc(S(=O)(=O)N3CCC4CCC(C(=O)NC(c5ccccc5)c5ccccc5)N4C(=O)C(NC(=O)C(C)NC)C3)c2)CCC2CCC(C(=O)NC(c3ccccc3)c3ccccc3)N2C1=O"
target_entity = "521955-158-R6-J3-PDC complex spheroid growth, % test/control"
test_value = "121%"

[[record]]
compound = "NC1CCC(NC2CC2c2ccccc2)CC1 (stereo unspecified) + CNC(C)C(=O)NC1CN(S(=O)(=O)c2cccc(S(=O)(=O)N3CCC4CCC(C(=O)NC(c5ccccc5)c5ccccc5)N4C(=O)C(NC(=O)C(C)NC)C3)c2)CCC2CCC(C(=O)NC(c3ccccc3)c3ccccc3)N2C1=O"
target_entity = "521955-158-R6-J3-PDC complex spheroid growth, % test/control"
test_value = "91.4%"

[[record]]
compound = "C#Cc1c(F)ccc2cc(O)cc(-c3ncc4c(N5CC6CCC(C5)N6)nc(OCC56CCCN5CC(F)C6)nc4c3F)c12 (stereo unspecified) + CNC(C)C(=O)NC1CN(S(=O)(=O)c2cccc(S(=O)(=O)N3CCC4CCC(C(=O)NC(c5ccccc5)c5ccccc5)N4C(=O)C(NC(=O)C(C)NC)C3)c2)CCC2CCC(C(=O)NC(c3ccccc3)c3ccccc3)N2C1=O"
target_entity = "521955-158-R6-J3-PDC complex spheroid growth, % test/control"
test_value = "56.6%"

[[record]]
compound = "O=C(c1ccc(F)c(F)c1Nc1ccc(I)cc1F)N1CC(O)([C@@H]2CCCCN2)C1 + CNC(C)C(=O)NC1CN(S(=O)(=O)c2cccc(S(=O)(=O)N3CCC4CCC(C(=O)NC(c5ccccc5)c5ccccc5)N4C(=O)C(NC(=O)C(C)NC)C3)c2)CCC2CCC(C(=O)NC(c3ccccc3)c3ccccc3)N2C1=O"
target_entity = "521955-158-R6-J3-PDC complex spheroid growth, % test/control"
test_value = "94.8%"


Give reported viability, T/C value for C=C(F)C(=O)N1CCN(c2nc(OCC3CCCN3C)nc3c2CCN(c2cccc4cccc(Cl)c24)C3)CC1CC#N (stereo unspecified) + CNC(C)C(=O)NC1CN(S(=O)(=O)c2cccc(S(=O)(=O)N3CCC4CCC(C(=O)NC(c5ccccc5)c5ccccc5)N4C(=O)C(NC(=O)C(C)NC)C3)c2)CCC2CCC(C(=O)NC(c3ccccc3)c3ccccc3)N2C1=O
87.4%
